subject.of.test: Ephrin type-B receptor 4 (Homo sapiens)
Sequence (P54760 whole entry): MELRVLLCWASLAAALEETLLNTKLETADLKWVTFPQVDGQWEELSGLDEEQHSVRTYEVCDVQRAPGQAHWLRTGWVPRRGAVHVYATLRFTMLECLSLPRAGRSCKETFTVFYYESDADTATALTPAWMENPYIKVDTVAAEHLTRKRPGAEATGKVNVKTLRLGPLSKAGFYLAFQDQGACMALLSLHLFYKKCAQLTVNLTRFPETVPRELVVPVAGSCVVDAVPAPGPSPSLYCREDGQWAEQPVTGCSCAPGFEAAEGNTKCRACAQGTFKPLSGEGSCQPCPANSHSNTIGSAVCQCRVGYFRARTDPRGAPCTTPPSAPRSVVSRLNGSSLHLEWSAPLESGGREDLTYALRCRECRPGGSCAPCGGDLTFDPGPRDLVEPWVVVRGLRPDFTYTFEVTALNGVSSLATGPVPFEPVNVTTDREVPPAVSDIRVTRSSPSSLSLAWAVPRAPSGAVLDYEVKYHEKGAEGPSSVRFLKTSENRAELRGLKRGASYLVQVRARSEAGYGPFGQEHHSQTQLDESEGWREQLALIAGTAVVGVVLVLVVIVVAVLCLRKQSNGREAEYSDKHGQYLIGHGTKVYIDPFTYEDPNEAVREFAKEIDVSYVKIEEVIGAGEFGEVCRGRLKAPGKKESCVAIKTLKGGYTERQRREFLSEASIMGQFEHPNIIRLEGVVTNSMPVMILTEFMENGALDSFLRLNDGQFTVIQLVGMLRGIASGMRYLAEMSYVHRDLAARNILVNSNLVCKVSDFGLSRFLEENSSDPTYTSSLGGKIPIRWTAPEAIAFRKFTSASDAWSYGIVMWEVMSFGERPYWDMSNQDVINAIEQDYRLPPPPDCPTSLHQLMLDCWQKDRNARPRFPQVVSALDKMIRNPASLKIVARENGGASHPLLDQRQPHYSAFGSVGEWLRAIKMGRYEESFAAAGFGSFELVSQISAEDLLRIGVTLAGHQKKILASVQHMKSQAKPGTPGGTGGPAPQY
test: Inhibition of EphB4 assessed as blockade of synthetic substrate phosphorylation by FRET assay
pIC50: −log10 of the molar value.
Below, each entry is listed alongside its reported pIC50.

Example cases with answers are listed next.
{"chemical.smiles": "COc1ccccc1-n1c(-c2ccc(C(=O)O)cc2)cn2c3c(=O)[nH]c(=O)n(C)c3nc12", "value.kind": "pIC50", "assay.result": "< 4.70"}
{"chemical.smiles": "CCCCn1c(-c2ccccc2OC)cn2c3c(=O)[nH]c(=O)n(C)c3nc12", "value.kind": "pIC50", "assay.result": "< 5.00"}
{"chemical.smiles": "COc1ccccc1-n1c(-c2ccc3c(c2)OCO3)cn2c3c(=O)[nH]c(=O)n(C)c3nc12", "value.kind": "pIC50", "assay.result": "< 4.70"}
{"chemical.smiles": "COc1ccccc1-n1c(-c2ccc([N+](=O)[O-])cc2)cn2c3c(=O)[nH]c(=O)n(C)c3nc12", "value.kind": "pIC50", "assay.result": "< 4.70"}

Write down pIC50 measured for item COc1ccccc1-n1c(-c2ccc(C#N)cc2)cn2c3c(=O)[nH]c(=O)n(C)c3nc12
< 4.70

Write down pIC50 measured for item CCCCn1c(-c2ccc(OC)cc2)cn2c3c(=O)[nH]c(=O)n(C)c3nc12
< 5.00

Write down pIC50 measured for item COc1ccccc1-n1c(-c2cccc(C)c2)cn2c3c(=O)[nH]c(=O)n(C)c3nc12
< 5.00

Write down pIC50 measured for item COc1ccccc1-n1c(-c2ccc(F)cc2)cn2c3c(=O)[nH]c(=O)n(Cc4ccccc4)c3nc12
< 5.00

Write down pIC50 measured for item COc1ccccc1-n1c(-c2ccccc2)cn2c3c(=O)[nH]c(=O)n(Cc4ccccc4)c3nc12
< 5.00
